Reference source for all entries: patent US10640468B2

# assay_notes: Pharmacokinetics after single oral administration to male Wistar rat
# Type: in vivo
# experimental_setup: male, Wistar, rat, plasma, po, 10 mg/kg, rat R2, 7 h, 10 mg/kg oral
Counter-ions that a name gives are not always drawn.
property_label: concentration at 7 h (ng/mL)
Give the number; ng/mL is assumed, so skip it.

Could you share which concentration at 7 h value was measured for CC(=O)N1CCN(CCOCc2ccn(-c3ccc(F)c(F)c3)n2)CC1 [Example 1, hydrochloride] ?
11.5

* * *

# assay_notes: Pharmacokinetics after single oral administration to male Wistar rat
# Format: in vivo
# experimental_setup: male, Wistar, rat, plasma, po, 10 mg/kg, animal 2, 10 mg/kg oral; read-out: t1/2 (converted)
Where a name gives a salt, the structure may show the parent alone.
property_label: half-life (min)
Give the number; min is assumed, so skip it.

Could you share which half-life value was measured for CC(=O)N1CCN(CCOCc2ccn(-c3ccc(F)c(F)c3)n2)CC1 [Example 1, hydrochloride] ?
54
